# System: K-562 leukemia growth, % test/control
# Method Description: Anticancer human tumor K-562 cell line growth inhibition; active = viability on the fitted dose curve at most 10% of control; inactive = the rest;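 also: spheroids exposed to compounds for 7 days; 100% = DMSO vehicle wells and lower values mean fewer viable cells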
# Condition Info: second compound 0.1 µM; first compound 0.949 µM; spheroids with HUVEC and MSC
Pick one and only one: active, inactive

O=C(C=Cc1cccc(S(=O)(=O)Nc2ccccc2)c1)NO + NC1CCC(NC2CC2c2ccccc2)CC1
active
O=C(C=Cc1cccc(S(=O)(=O)Nc2ccccc2)c1)NO + NC1CC1c1ccc(-c2cccc(O)c2)cc1
inactive

## Input Each compound tested received a call. Report the one for Nc1ccccc1NC(=O)c1ccc(CNC(=O)OCc2cccnc2)cc1 + NC1CCC(NC2CC2c2ccccc2)CC1 .
## Output active

## Input Hi team, can someone confirm the assay call for Nc1ccccc1NC(=O)c1ccc(CNC(=O)OCc2cccnc2)cc1 + NC1CC1c1ccc(-c2cccc(O)c2)cc1 ?
## Output active

## Input Assay result, entry NS(=O)(=O)OCC1CC(n2ccc3c(NC4CCc5ccccc54)ncnc32)CC1O (configuration not stated) + NC1CCC(NC2CC2c2ccccc2)CC1 — outcome?
## Output inactive

## Input For CCN(c1cc(-c2ccc(CN3CCOCC3)cc2)cc(C(=O)NCc2c(C)cc(C)[nH]c2=O)c1C)C1CCOCC1 + NC1CCC(NC2CC2c2ccccc2)CC1 , which call appears in the assay record?
## Output inactive

## Input Write down the call the test reported for this compound. Item: COc1cc(C2c3cc4c(cc3C(OC3OC5COC(C)OC5C(O)C3O)C3COC(=O)C23)OCO4)cc(OC)c1O (configuration not stated) + NC1CC1c1ccc(-c2cccc(O)c2)cc1
## Output inactive

---

# Tested on: K-562 leukemia growth, % test/control
# Method Description: Anticancer human tumor K-562 cell line growth inhibition;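 also: spheroids exposed to compounds for 7 days; 100% = DMSO vehicle wells and lower values mean fewer viable cells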
# Condition Info: second compound 1 µM; first compound 0.0316 µM; stronger effect = lower value; spheroids with HUVEC and MSC
What viability, T/C was measured for each of the following?
Answers are plain numbers, in %.

Solved entries (count: 8):
CC1COCCN1c1cc(C2(S(C)(=N)=O)CC2)nc(-c2ccnc3[nH]ccc23)n1 (configuration not stated) + NC1CCC(NC2CC2c2ccccc2)CC1
106
Cn1ncnc1C1c2n[nH]c(=O)c3cc(F)cc(c23)NC1c1ccc(F)cc1 (configuration not stated) + NC1CC1c1ccc(-c2cccc(O)c2)cc1
97.2
CC(C)CC(NC(=O)C(Cc1ccccc1)NC(=O)c1cnccn1)B(O)O (configuration not stated) + NC1CC1c1ccc(-c2cccc(O)c2)cc1
0.39
CC(C)CC(NC(=O)CNC(=O)c1cc(Cl)ccc1Cl)B1OC(=O)CC(CC(=O)O)(C(=O)O)O1 (configuration not stated) + NC1CC1c1ccc(-c2cccc(O)c2)cc1
9.51
COc1cc(Nc2ncc3c(n2)-c2ccc(Cl)cc2C(c2c(F)cccc2OC)=NC3)ccc1C(=O)O + NC1CC1c1ccc(-c2cccc(O)c2)cc1
22.4
O=C(c1cc(Cc2n[nH]c(=O)c3ccccc23)ccc1F)N1CCN(C(=O)C2CC2)CC1 + NC1CC1c1ccc(-c2cccc(O)c2)cc1
98
CC1COCCN1c1cc(C2(S(C)(=N)=O)CC2)nc(-c2ccnc3[nH]ccc23)n1 (configuration not stated) + NC1CC1c1ccc(-c2cccc(O)c2)cc1
105
CC(C)c1c(-c2ccccc2)nc2c(C#N)c[nH]n2c1=O + NC1CC1c1ccc(-c2cccc(O)c2)cc1
97.8

Would you be so kind as to report viability, T/C for each listed record?
1. CC1(C)CCC(CN2CCN(c3ccc(C(=O)NS(=O)(=O)c4ccc(NCC5CCOCC5)c([N+](=O)[O-])c4)c(Oc4cnc5[nH]ccc5c4)c3)CC2)=C(c2ccc(Cl)cc2)C1 + NC1CCC(NC2CC2c2ccccc2)CC1
2. CC(C)c1c(-c2ccccc2)nc2c(C#N)c[nH]n2c1=O + NC1CCC(NC2CC2c2ccccc2)CC1
3. COc1ccc([C@@H](O)c2cc(-c3ncnc4cc(N5CCOCC5)ccc34)c(F)cc2Cl)nn1 + NC1CC1c1ccc(-c2cccc(O)c2)cc1
4. Nc1ncn(C2CC(O)C(CO)O2)c(=O)n1 (configuration not stated) + NC1CC1c1ccc(-c2cccc(O)c2)cc1

## Output
1: 104; 2: 102; 3: 99.1; 4: 95.9
